Sourced from PubChem BioAssay AID1415

target: Guanine nucleotide-binding protein G(o) subunit alpha (Homo sapiens) (UniProt P09471); experiment: modulators of RGS4 binding to Galphao, primary screen, biochemical, multiplexed bead flow cytometry (AID 1415); settings: at 10 µM, actives lie on both sides;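 note: fluorescent Galphao activated with aluminum fluoride binding bead-coupled RGS4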
Sequence (P09471 whole entry, looked up): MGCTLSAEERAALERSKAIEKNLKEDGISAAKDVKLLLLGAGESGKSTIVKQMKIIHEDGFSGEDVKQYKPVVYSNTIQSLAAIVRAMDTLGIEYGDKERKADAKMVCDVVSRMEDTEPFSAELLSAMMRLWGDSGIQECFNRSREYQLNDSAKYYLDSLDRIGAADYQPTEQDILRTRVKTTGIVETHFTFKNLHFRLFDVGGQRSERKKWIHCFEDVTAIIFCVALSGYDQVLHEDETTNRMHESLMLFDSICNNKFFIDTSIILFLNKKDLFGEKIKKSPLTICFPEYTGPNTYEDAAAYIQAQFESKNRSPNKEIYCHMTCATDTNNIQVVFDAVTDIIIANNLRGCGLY
The whole screen tested about 220,000 compounds, of which about 710 (0.32%) were called active. Cut-off read from the data, not from the text of the source: active = binding response below about 49% or above about 150%; inactive = in between. What follows is part of a selection rich in actives, with near analogues and random picks from the rest.
Hello, when you answer, please use one of the following outcomes: y for active, n for inactive

compound=N#Cc1nc(COc2ccc(-c3ccccc3)cc2)oc1NCc1cccnc1 label_value=y
compound="Cc1cc(C)cc(N(C(C)C(=O)Nc2c(C)n(C)n(-c3ccccc3)c2=O)S(C)(=O)=O)c1 (stereo not drawn)" label_value=n
compound=Cc1[nH]c2ccccc2c1/C=N/NC(=O)CNC(=O)c1ccc2c(c1)OCO2 label_value=n
compound="CCOC(=O)C1=C(C)NC(=O)N(C(C)=O)C1c1ccc(Cl)cc1 (stereo not drawn)" label_value=n

Could you kindly confirm the outcome this assay logged for O=C(Nc1cc(Cl)cc(Cl)c1)C(NCCCO)c1ccccc1 (stereo not drawn) ?
n

Could you kindly confirm the outcome this assay logged for N#Cc1nc(-c2ccc(OCc3ccccc3)cc2)oc1NCCCN1CCOCC1 ?
n

Could you kindly confirm the outcome this assay logged for CCOC(=O)N1CCN(C(=O)COc2ccc(Cl)cc2C)CC1 ?
n

Could you kindly confirm the outcome this assay logged for Cc1ccc(NC(=O)NCC(c2cccnc2)N2CCOCC2)cc1 (stereo not drawn) ?
n

Could you kindly confirm the outcome this assay logged for CN1CCN(S(=O)(=O)c2ccc(N3CCN(S(=O)(=O)c4cccs4)CC3)nc2)CC1 ?
n

Could you kindly confirm the outcome this assay logged for C=C(C)C(=O)Nc1cccc(C2=NOC3(C2)C[C@H](C(N)=O)N(C(=O)C(c2ccccc2)c2ccccc2)C3)c1 (stereo partly drawn) ?
n

Could you kindly confirm the outcome this assay logged for CCCCCCCCCOC1OC(CO)C(O)C(O)C1NC(C)=O (stereo not drawn) ?
n

Could you kindly confirm the outcome this assay logged for Cc1ccc(S(=O)(=O)CC(=O)Nc2c(C)n(C)n(-c3ccccc3)c2=O)cc1 ?
n

Could you kindly confirm the outcome this assay logged for CCCCOC(=O)Cn1c(=N)n(CCN(CC)CC)c2ccccc21 ?
y

----------
molecular target: Guanine nucleotide-binding protein G(o) subunit alpha (Homo sapiens); assay: modulators of RGS4 binding to Galphao, primary screen, biochemical, multiplexed bead flow cytometry (AID 1415); details: at 10 µM, actives lie on both sides;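 note: fluorescent Galphao activated with aluminum fluoride binding bead-coupled RGS4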
About 710 (0.32%) of roughly 220,000 compounds were called active. Many of the other results were omitted from the sample, so actives are more common in it than they were.
quantity.kind: binding response (% of control) (%)
Express the result in % but write the number alone.

Guide cases for binding response (% of control), answers given:
compound_structure=CC(=O)Nc1ccc(/C=N/NC(=O)c2cccs2)cc1 quantity_kind="binding response (% of control)" output_unit=% measured=99.4
compound_structure=C=CCn1c(=NC(=O)c2ccc(S(=O)(=O)N3CCCC3)cc2)sc2cc(NC(C)=O)ccc21 quantity_kind="binding response (% of control)" output_unit=% measured=94.5
compound_structure=COc1ccc(C)cc1S(=O)(=O)N(CC(=O)Nc1cccc([N+](=O)[O-])c1)c1ccc(C)cc1 quantity_kind="binding response (% of control)" output_unit=% measured=87.7
compound_structure=COc1ccc(CC(=O)n2nc(-c3cccnc3)nc2N)cc1 quantity_kind="binding response (% of control)" output_unit=% measured=96.8

The value of binding response (% of control) measured for the molecule Cc1ccccc1C1=NC(C(F)(F)F)(C(F)(F)F)c2c(n(-c3ccc(F)cc3)c(=O)[nH]c2=O)N1 turned out to be 104
